Item-by-item account of Maximum Blocking
Molecular target: T1, biotinylated human IL-33 (human) (UniProt O95760)
T1 sequence (biotin-labeled with EZ-LINK NHS-PEG4-Biotin, looked up): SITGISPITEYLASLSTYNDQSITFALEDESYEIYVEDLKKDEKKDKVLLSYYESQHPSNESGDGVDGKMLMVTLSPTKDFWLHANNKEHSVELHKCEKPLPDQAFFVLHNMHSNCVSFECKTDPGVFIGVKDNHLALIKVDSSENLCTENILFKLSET
Test: competitive ELISA, biotin-huIL-33 to coated hST2-Fc
Number only, in %; omit the unit.

Consider the following illustrative entries.
[[record]]
binder = "H4H9675P (antibody, from another filing, IgG4, V domains shown) VH: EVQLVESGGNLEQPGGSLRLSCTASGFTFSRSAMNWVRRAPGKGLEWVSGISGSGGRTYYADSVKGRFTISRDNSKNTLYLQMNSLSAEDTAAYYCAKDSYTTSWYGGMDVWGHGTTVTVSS VL: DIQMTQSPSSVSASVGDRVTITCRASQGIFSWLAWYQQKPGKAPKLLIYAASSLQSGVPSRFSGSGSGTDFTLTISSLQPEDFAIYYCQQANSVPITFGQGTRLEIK"
property_label = "Maximum Blocking"
observed = 84

[[record]]
binder = "H4H9662P (antibody, from another filing, IgG4, V domains shown) VH: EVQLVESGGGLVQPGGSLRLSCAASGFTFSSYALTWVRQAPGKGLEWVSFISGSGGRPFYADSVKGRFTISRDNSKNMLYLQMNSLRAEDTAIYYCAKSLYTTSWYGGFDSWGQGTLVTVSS VL: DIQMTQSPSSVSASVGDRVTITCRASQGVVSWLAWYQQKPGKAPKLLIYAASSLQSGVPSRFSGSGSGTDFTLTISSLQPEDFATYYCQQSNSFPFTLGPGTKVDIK"
property_label = "Maximum Blocking"
observed = 85

[[record]]
binder = "H4H9665P (antibody, from another filing, IgG4, V domains shown) VH: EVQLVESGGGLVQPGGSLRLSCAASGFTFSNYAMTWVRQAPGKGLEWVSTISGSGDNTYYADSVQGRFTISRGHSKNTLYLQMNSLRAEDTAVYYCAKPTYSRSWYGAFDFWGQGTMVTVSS VL: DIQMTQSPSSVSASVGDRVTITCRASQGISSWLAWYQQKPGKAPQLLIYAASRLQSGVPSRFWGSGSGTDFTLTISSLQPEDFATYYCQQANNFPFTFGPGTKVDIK"
property_label = "Maximum Blocking"
observed = 63

[[record]]
binder = "H4H9670P (antibody, from another filing, IgG4, V domains shown) VH: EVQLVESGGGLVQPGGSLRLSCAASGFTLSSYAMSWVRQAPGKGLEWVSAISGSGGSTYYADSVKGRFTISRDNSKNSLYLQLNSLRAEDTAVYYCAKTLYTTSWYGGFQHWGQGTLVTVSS VL: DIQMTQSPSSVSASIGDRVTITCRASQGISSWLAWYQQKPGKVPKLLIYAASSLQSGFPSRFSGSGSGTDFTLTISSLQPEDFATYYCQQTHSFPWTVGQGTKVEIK"
property_label = "Maximum Blocking"
observed = 80


Please look up its Maximum Blocking: H4H9676P (antibody, from another filing, IgG4, V domains shown) VH: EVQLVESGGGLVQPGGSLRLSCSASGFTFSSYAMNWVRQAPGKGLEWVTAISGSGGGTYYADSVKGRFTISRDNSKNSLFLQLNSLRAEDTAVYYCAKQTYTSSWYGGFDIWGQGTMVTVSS VL: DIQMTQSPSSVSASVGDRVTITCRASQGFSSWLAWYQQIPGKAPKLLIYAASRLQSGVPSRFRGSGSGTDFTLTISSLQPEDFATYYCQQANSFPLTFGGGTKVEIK
73
